# TARGET_ENTITY: HA (H1N1 hemagglutinin, Cat No.: Z03181, GenScript) (Influenza A virus, UniProt C3W5S1)
# Construct: Full-length recombinant HA (His-Tag) was immobilized
# Sequence (C3W5S1 entry or part of it, added parts left off): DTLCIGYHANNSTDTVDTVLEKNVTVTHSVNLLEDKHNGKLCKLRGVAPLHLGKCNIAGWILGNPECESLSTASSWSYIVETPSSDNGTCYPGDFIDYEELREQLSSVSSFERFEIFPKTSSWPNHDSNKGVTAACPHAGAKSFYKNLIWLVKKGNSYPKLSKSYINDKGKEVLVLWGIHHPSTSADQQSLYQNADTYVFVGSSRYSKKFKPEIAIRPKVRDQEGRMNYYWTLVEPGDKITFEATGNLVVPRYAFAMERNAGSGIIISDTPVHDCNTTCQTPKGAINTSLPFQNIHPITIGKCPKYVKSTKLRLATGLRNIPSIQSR
# EXPERIMENT_DESCRIPTION: biochemical
*1 amine or outer side, *2 acyl side, *3 side chain or, on linkers, in order; H or OH if unused. Where a SMILES comes first, the peptide text is derived from it. [ ]: non-standard residue; d: D form. N(2-mercaptoethyl)Gly = O=C(CN(CCS[*:3])[*:1])[*:2]; NMeS = CN[C@@H](CO)C(=O)O
Each record here notes measured pKd.
To interpret pKd, take it as minus log10 of a concentration measured in moles per litre.

IN: Output pKd of CC(=O)N[C@@H](CO)C(=O)N[C@@H](CC(C)C)C(=O)N[C@@H](CC(=O)O)C(=O)N(CCS)CC(N)=O [Peptide 14, SLDNhC] (Ac-SLD[N(2-mercaptoethyl)Gly]-NH2)
OUT: 7.34

IN: Output pKd of CC(=O)N[C@@H](CO)C(=O)N[C@@H](CCCCN)C(=O)N[C@@H](Cc1c[nH]cn1)C(=O)N(C)[C@@H](CO)C(N)=O [Peptide 10, SKH(N-Me)S] (Ac-SKH[NMeS]-NH2)
OUT: 5.52

IN: Output pKd of CC(=O)N[C@@H](CO)C(=O)N[C@@H](CCCCN)C(=O)N(CC(=O)N[C@@H](CO)C(N)=O)Cc1c[nH]cn1 [Peptide 17, SKNHS]
OUT: 5.51
